The entries below pair compounds with pIC50 values for Fibroblast growth factor receptor 4 (Homo sapiens, UniProt P22455), as found in several publications.
pIC50: −log10 of the molar value.
measurement_kind: pIC50

Example cases with answers are listed next.
{"columns": ["compound", "measurement_kind", "measured_number"],
 "data": [
  ["C=CC(=O)Nc1cccc(C)c1Nc1cc2c(OC)nc(-c3c(Cl)c(OC)cc(OC)c3Cl)cc2cn1", "pIC50", 6.86],
  ["C=CC(=O)N[C@H]1CCOC[C@H]1Nc1ncc2cc(-c3c(Cl)c(OC)cc(OC)c3Cl)nc(NCC3CC3)c2n1", "pIC50", 7.80]
]}

(a) C=CC(=O)N[C@H]1COC[C@H]1Nc1ncc2cc(-c3c(Cl)c(OC)cc(OC)c3Cl)nc(NC3CC3)c2n1
(b) CC(C)Oc1cc(NC(=O)N(C)c2ccc(C(=O)O)c(C=O)n2)ncc1C#N
(c) COC[C@H](C)Nc1cc(NC(=O)N2CCCc3cc(CN4CCCCOC4=O)c(C=O)nc32)ncc1C#N
(d) C=CC(=O)N[C@H]1COC[C@H]1Nc1ncc2cc(-c3c(F)c(OC)cc(OC)c3F)nc(N3CC(C)(OC)C3)c2n1
Input line: Rank ascending by pIC50. // list labels; follow requested order
Output line: a, d, c, b

(a) COc1cc(OC)c(F)c(COc2cnc(NC(=O)N3CCCc4c(C)cc(C=O)nc43)nc2)c1F
(b) CCN(C(=O)Nc1cc(OC(C)C)c(C#N)cn1)c1ccc(-c2cnn(C)c2)c(C=O)n1
Input line: For the pair a and b , which entry has the numerically smaller recorded pIC50? Could you answer with the label of the item you picked?
Output line: b
(b: 8.07, a: 8.72)
